Cited source: the supplement of paper PMC4862054

Some compounds, each annotated with its measured normalised viability.
Tested on: MFM-223
assay-summary: normalised viability (% of control), CellTiter-Blue; higher = more viable cells (about 100 = DMSO control)
test-conditions: 10000 nM; incubation time: 72 h
value-kind: normalised viability (%)

# compound, unit-text, value-measured
measured = [
    ("c1ccc(C2CN3CCSC3=N2)cc1 (centres undefined) [Tetramisole]", "%", 90.3),
    ("COC1=CC(c2cc3ccccc3[nH]2)=N/C1=C\\c1[nH]c(C)cc1C [Obatoclax]", "%", 25.6),
    ("O=c1[nH]cc(F)c(=O)[nH]1 [Fluorouracil]", "%", 94.3),
    ("COc1ccc(C2=N[C@@H](c3ccc(Cl)cc3)[C@@H](c3ccc(Cl)cc3)N2C(=O)N2CCNC(=O)C2)c(OC(C)C)c1 [Nutlin-3]", "%", 81.6),
]
